Target: T1, EsCas13d, nuclease-dead (Eubacterium siraeum, UniProt B0MS50, R295A;H300A;R849A;H854A)
T1 sequence: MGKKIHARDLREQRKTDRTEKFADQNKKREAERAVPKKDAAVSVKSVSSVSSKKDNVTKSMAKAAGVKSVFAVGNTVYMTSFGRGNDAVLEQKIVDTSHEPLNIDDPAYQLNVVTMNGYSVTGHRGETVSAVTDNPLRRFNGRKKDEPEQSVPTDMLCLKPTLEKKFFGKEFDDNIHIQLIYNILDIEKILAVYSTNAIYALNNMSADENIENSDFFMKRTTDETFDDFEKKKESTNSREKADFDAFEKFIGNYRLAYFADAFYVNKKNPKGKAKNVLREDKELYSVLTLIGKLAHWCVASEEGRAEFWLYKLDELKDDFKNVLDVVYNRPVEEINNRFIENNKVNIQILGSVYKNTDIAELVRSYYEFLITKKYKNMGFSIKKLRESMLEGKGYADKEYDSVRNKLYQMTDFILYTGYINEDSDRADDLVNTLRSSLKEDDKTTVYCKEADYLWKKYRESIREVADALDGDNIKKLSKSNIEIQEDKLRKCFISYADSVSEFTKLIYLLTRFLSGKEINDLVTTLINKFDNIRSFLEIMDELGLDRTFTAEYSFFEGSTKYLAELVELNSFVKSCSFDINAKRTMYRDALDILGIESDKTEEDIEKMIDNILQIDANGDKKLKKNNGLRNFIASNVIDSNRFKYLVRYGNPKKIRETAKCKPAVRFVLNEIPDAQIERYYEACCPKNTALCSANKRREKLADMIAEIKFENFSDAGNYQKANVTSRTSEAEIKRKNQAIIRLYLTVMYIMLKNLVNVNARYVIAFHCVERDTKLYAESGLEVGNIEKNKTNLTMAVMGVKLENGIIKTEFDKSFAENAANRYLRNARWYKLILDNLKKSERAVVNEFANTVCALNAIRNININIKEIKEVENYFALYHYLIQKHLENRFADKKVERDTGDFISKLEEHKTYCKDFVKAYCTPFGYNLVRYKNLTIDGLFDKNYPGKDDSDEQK
Test: crRNA (strand 1, pre-loaded); Mg2+; 40 mM Tris-HCl pH 7.5, 150 mM NaCl, 6 mM MgCl2, 1 mM DTT, 0.1% Tween-20, 0.2 mg/ml BSA; 25 C; 10 min per concentration, then washed
Settings: tags: His6-TwinStrep-SUMO cleaved; N-terminal SNAP kept (SNAP-Surface 488); label: 3' end held by stalled T7 RNA polymerase
measured.metric: Kd (nM)
Numbers only, in nM.

Query: Kd; subject: target 1 del13,del19 (mixed) RNA 1: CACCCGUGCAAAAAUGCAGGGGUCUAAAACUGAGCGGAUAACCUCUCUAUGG RNA 2: GGGAAUGGAUCCACAUCUACGAAUUCGUACCAAGAGAGUUAUCCGCUCACCGAGAUCGGAAGAGCACACGU
80

Consider next the binder target 1 insA 3' of 12,insC 3' of 5 (mixed) RNA 1: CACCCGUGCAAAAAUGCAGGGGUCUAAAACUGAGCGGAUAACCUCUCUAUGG RNA 2: GGGAAUGGAUCCACAUCUACGAAUUCGUACCAUAGAGAGGAUUAUCCGCCUCACCGAGAUCGGAAGAGCACACGU in the same way.
23.6

Consider next the binder target 1 insU 3' of 22,insG 3' of 9 (mixed) RNA 1: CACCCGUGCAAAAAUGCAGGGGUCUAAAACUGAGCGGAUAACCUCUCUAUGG RNA 2: GGGAAUGGAUCCACAUCUACGAAUUCGUACUCAUAGAGAGGUUAGUCCGCUCACCGAGAUCGGAAGAGCACACGU in the same way.
76

Consider next the binder target 1 MT 5'PFS CAG 3'PFS UCU (mixed) RNA 1: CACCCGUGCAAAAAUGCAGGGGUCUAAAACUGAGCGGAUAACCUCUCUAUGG RNA 2: GGGAAUGGAUCCACAUCUACGAAUUCCAGCCAUAGAGAGGUUAUCCGCUCAUCUAGAUCGGAAGAGCACACGU in the same way.
19

State the recorded Kd for every item in the following list.
1. target 3 del6,del9 (mixed) RNA 1: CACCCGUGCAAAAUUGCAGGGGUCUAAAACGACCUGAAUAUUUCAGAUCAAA RNA 2: GGGAAUGGAUCCACAUCUACGAAUUCGUUUUUGAUCUGAAAUUUAGGUCUGCAGAUCGGAAGAGCACACGU
2. target 1 U8C,G17U (mixed) RNA 1: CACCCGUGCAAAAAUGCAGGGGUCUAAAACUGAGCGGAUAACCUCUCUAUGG RNA 2: GGGAAUGGAUCCACAUCUACGAAUUCGUACCAUAUAGAGGUUACCCGCUCACCGAGAUCGGAAGAGCACACGU

1. 120
2. 41

State the recorded Kd for every item in the following list.
1. target 1 insG 3' of 18,insG 3' of 6 (mixed) RNA 1: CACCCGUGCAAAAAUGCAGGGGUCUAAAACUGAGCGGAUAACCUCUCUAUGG RNA 2: GGGAAUGGAUCCACAUCUACGAAUUCGUACCAUAGGAGAGGUUAUCCGGCUCACCGAGAUCGGAAGAGCACACGU
2. target 1 insG 3' of 6,insG 3' of 1 (mixed) RNA 1: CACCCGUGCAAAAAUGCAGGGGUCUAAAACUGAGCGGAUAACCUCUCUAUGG RNA 2: GGGAAUGGAUCCACAUCUACGAAUUCGUACCAUAGAGAGGUUAUCCGGCUCAGCCGAGAUCGGAAGAGCACACGU
3. target 1 G5C,G12A (mixed) RNA 1: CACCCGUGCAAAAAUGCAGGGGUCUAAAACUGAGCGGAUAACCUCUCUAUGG RNA 2: GGGAAUGGAUCCACAUCUACGAAUUCGUACCAUAGAGAGAUUAUCCCCUCACCGAGAUCGGAAGAGCACACGU

1. 71
2. 5.7
3. 8.6
